Catalogue of sequences with associated apparent KD of MS2 coat protein
system: MS2 coat protein; assay: apparent KD of MS2 coat protein; designed switch direction (-1 OFF switch, 1 ON switch): 1; higher = weaker reporter binding; conditions: Eterna round: R95; input ligand: microRNA oligo, concentration not stated

Take a look at these entries with their results.
- residueString: "GGUCCAGCCUGAGCUGGACAAAAGCAUGUACAUGAGGAUCACCCAUGUCAUGUACAAGCUUUUUGCUCGUCAGAAAG [Mat - hsa-mir-208a - 98] (puzzle: Sensor for hsa-mir-208a)"
  apparent KD of MS2 coat protein: "16.9 nM"
- residueString: "UGUCCAGCCUGUGCUGGUCUUUUGCAUGUACAUGAGGAUCACCCAUGUCGUGUUCAUGCUUUUUGCUCGUCUUUAAA [Photon Torp-02] (puzzle: Sensor for hsa-mir-208a)"
  apparent KD of MS2 coat protein: "17.2 nM"
- residueString: "ACAAGCUUUUUGCUCAUCUUAUGUCCGAAACAUGAGGAUCACCCAUGUAUAGAUUAUGUGUUGUUUUUGAUACAAGA [JR_SHM208A_Sub064] (puzzle: Sensor for hsa-mir-208a)"
  apparent KD of MS2 coat protein: "24.9 nM"
- residueString: "CGUCCGGCCUGUGCUGGCCGGUGGCUUGUACAUGAGGAUCACCCAUGUUCUUGUGCUGGCUUUUUGCUCGUCGUGUG [salish99_mir208a_r3_023] (puzzle: Sensor for hsa-mir-208a)"
  apparent KD of MS2 coat protein: "19.8 nM"

query: Returns the measured apparent KD of MS2 coat protein for the input sequence. Input: AACAAUCUAUCUGAGGAUAUCAUGAAAUAAACAUGAGGAUCACCCAUGUGCUGGAAAACUGCAUAUGAGAAGGCAGAUAGAUUGA [salish99_ss2_r3_037] (puzzle: Same State 2)
result: 237 nM

query: Request the reported apparent KD of MS2 coat protein associated with UUUAGUUGCGCGCAGGAUAUGUAUUAAUAUACAUGAGGAUCACCCAUGUGAGAUCGAAUAGAUCUGCAGAAGGGCGAAUCGCGAC [Laonerce - 27] (puzzle: Same State 2)
result: 361 nM

query: # apparent KD of MS2 coat protein lookup, item AAAGUACAUGAGGAUCACCCAUGUCCAAAAAAGUAAGGAUAUGUGGUGCGACUACGAAACACAGAAGGUACAAAAA [Malcolm Mod] (puzzle: Same State 1)
result: 13.3 nM

query: Name the recorded apparent KD of MS2 coat protein for GGUCCAGCCUGAGCUGGACAAAAGCAUGUACAUGAGGAUCACCCAUGUCAUGUACAGGCUUUUUGCUCGUCUUAAAA [JL mod - D87 - 7] (puzzle: Sensor for hsa-mir-208a) .
result: 16.1 nM

query: Quick check: apparent KD of MS2 coat protein of GAGGGAUGAGCGUAGGAUAUAGGAGAAGUGACAUGAGGAUCACCCAUGUAGGAGGAGGGAUGAGACUAGAAGGACGAGGUAGGAG [JR_SS2_Sub061] (puzzle: Same State 2) ?
result: 54.7 nM

query: Fill in: apparent KD of MS2 coat protein of AGUCCUGAAAAGAAAAUAAAGAGAGAUGUACAUGAGGAUCACCCAUGUCAUGUACAAGUUCUAUGCUCGUCAUAUAA [Sensorship 23 - Jieux - Sensor for hsa-mir-208a] (puzzle: Sensor for hsa-mir-208a) is ___
result: 113 nM

###

This listing pairs sequences with measured apparent KD of MS2 coat protein.
test system: MS2 coat protein; assay: apparent KD of MS2 coat protein; designed switch direction (-1 OFF switch, 1 ON switch): -1; higher = weaker reporter binding; settings: input ligand: FMN 200 uM
Please answer using a numeric value trailed by its unit.

query: Missing value: apparent KD of MS2 coat protein, MS2 coat protein, entry AGUAGGAGAGGAUAUACAUGAAGUCGAAAGACUUCAACUCAACAUGAGGAUCACCCAUGUAGAAGGCUCCUACA [Omei Ex2 BD A6] (Eterna round: R97, puzzle: Exclusion 2) . Fill in?
result: 132 nM

query: Quick check: apparent KD of MS2 coat protein on MS2 coat protein, item GUAACAUGCUGGUGAUCAUACAUGAGGAUCACCCAUGUAACAAGCUUUUUGCUCGUCUUAUAAUUUAAGAUCACCAG [Stov1/7-A3] (Eterna round: R97, puzzle: Sensor, turn-off variant 1) ?
result: 16.3 nM

query: Record AGAUCGUCAGGAUAUACAUGAGGAUCACCCAUGUAUUGUCUAAAUUUGACUAUACGAUGUAGAAGGGACGAUCG [Exclusion 3 (MOD7 of #1 Marzena11)] (Eterna round: R97, puzzle: Exclusion 3) : what is its apparent KD of MS2 coat protein with MS2 coat protein?
result: 41.7 nM

query: Item: UUAAUUAAUUAACGCAGCAAGAUCACAUGAGGAUCACCCAUGUAGGAUAUCAGCUCGUUUAGAGCUGAGAAGGACAUAGCUGCG [ExNG3/1-A2] (Eterna round: R96, puzzle: Exclusion NG 3) Test system: MS2 coat protein Read-out: apparent KD of MS2 coat protein Value: ?
result: 87.6 nM

query: Please tell me: apparent KD of MS2 coat protein of CUAUAUUUAGGAUAUGUUCGGCUAGACAUGAGGAUCACCCAUGUGAGCCUAGGAGCAGCCACAGAAGGGAGUAUGU [Eternabot (L2) Solution 62] (Eterna round: R97, puzzle: Exclusion 5) , system MS2 coat protein?
result: 27.6 nM

query: Enter reported apparent KD of MS2 coat protein observed with MS2 coat protein for GCCGUCAAUGUGAGGAUAUGCCUAUGGAUACGUAGGCAGAAGGCACAUGAGGAUCACCCAUGUCCAAAGACGGC [JL-BMX4-4.31 Eli mod] (Eterna round: R97, puzzle: Brourd's mod of Exclusion 4)
result: 2170 nM

###

Quick list: apparent KD of MS2 coat protein per entry.
test system: MS2 coat protein; assay: apparent KD of MS2 coat protein; designed switch direction (-1 OFF switch, 1 ON switch): -1; higher = weaker reporter binding; conditions: input ligand: microRNA oligo, concentration not stated
All answers are understood in nM, so give the number only.

Examples with answers:
- residueString: "AGCUGUGGCCGAGGAUAUCACAUGAGGAUCACCCAUGUACAUGAUUAAGCCUGGUAACAGGCUCAUGAGAAGGCGGUCUCAGCA [Eli eng2 - 014] (Eterna round: R96, puzzle: Exclusion NG 2)"
  apparent KD of MS2 coat protein [nM]: 13.1
- residueString: "GUAAAUCAUGUAGGAUAUGCGUGGCGAAGCUAUGCAGAAGGACAUGAGGAUCACCCAUGUGCUUCCGUCUGAGAACAGACGGAA [Mat - Exclusion NG 1 - Mod of JL - D27] (Eterna round: R96, puzzle: Exclusion NG 1)"
  apparent KD of MS2 coat protein [nM]: 187
- residueString: "UACAUGAGGAUCACCCAUGUUUUGUCGUGUAUGGUAUUUAUCUAGGAUAUCAAUGAAUUUAUUUAUGAGAAGGAGAAUAUUAAU [JMF's solution 37] (Eterna round: R96, puzzle: Exclusion NG 3)"
  apparent KD of MS2 coat protein [nM]: 30.7
- residueString: "AGUACUAUCACGAAAGUGAUAGUACAAAGAGCAAGUGGAACAUGAGGAUCACCCAUGUCCUCAUAUGCUCGUCUUAU [salish99-s2-v2-x003] (Eterna round: R96, puzzle: Sensor v2, turn-off variant 2)"
  apparent KD of MS2 coat protein [nM]: 322
- residueString: "UAACAUGUACAAGGAUAUCAGCACGAUUAGUGCUGAGAAGGUGUAACAUGAGGAUCACCCAUGUAGAUCAUUAAUUAAUUAAUU [ENG1/9-B1] (Eterna round: R96, puzzle: Exclusion NG 1)"
  apparent KD of MS2 coat protein [nM]: 60.9

query: Which measured apparent KD of MS2 coat protein value corresponds to UUCGUACAGCAAAGCUGUACGCGUACAUGAGGAUCACCCAUGUAGGAUAUGGUAGGCAAAGCUUACUAGAAGGAUAGAGUGAUC [Mat - Exclusion NG 3 - Mod of JL - D76] (Eterna round: R96, puzzle: Exclusion NG 3) ?
result: 290

query: Bench note: what apparent KD of MS2 coat protein did CUAUUCCGAGGAUAUACAUGAGGAUCACCCAUGUCGGGCCUCUGCGUUUAGCGCGAAAGUAGAAGGUGGGUUUC [JL Riri mod 9] (Eterna round: R96, puzzle: Exclusion 3) show?
result: 26.8

query: Could you tell me which apparent KD of MS2 coat protein is on file for AACAUGUGAGGAUAUUUAAGAAAAGAAAAGAAAGAAAAGAAAAAGAAGGCACAUGAGGAUCACCCAUGUAAGAA [EteRNA is fun!] (Eterna round: R96, puzzle: Exclusion 4) ?
result: 19

query: Dear colleague, I am looking for the recorded apparent KD of MS2 coat protein of the following sequence: GCAGCUAACACAGAUAUGUGCACAUGAGGAUCACCCAUGUCACAGGAUAUGGACUGGAUUACAGUCCAGAAGGGUGAAUGCUGC [Zipper Style 6] (Eterna round: R96, puzzle: Exclusion NG 3)
result: 7.97

Each recorded value in this set is attributed to the supplement of paper PMC9170038.
